Assay: sensitizers of A549 cells to miR-34 induction, primary screen, imaging, A549 dox-inducible miR-34, nuclei and caspase counts (AID 1347080)
Details: A549 miR-34 inducible, Hoechst nuclei count, 48 h; measured here: total cells with miR-34 induction; stronger effect = lower value
Reported Endpoint: cell count
Answer with the value's number alone.

Below are worked cases with known answers.
- Compound: "COc1ccccc1N1CCN(CCCCNC(=O)c2ccc(-c3ccc(C(C)=O)cc3)cc2)CC1"
  cell count: 8920
- Compound: "CCCCN1C[C@H](O)[C@@H](O)[C@H](O)[C@H]1CO"
  cell count: 9280
- Compound: "O=c1ccc2cc(O)c(O)cc2o1"
  cell count: 6390
- Compound: "CCCCCCCCCCCCCCCCCCCCCCO"
  cell count: 10500
- Compound: "CN1C(=O)CC(C)(c2ccccc2)C1=O (stereo not given)"
  cell count: 8480

Now turn to the next compound.
compound `COc1nccnc1NS(=O)(=O)c1ccc(N)cc1` , cell count observed: 9240

---

Test: ovarian cancer cell viability with rucaparib, profiling panel, oncology-focused library, rucaparib conditional (AID 1508598)
Settings: patient-derived ovarian cancer cells, CellTiter-Glo viability, 144 h; at 0.0195 µM; OCI-C5x cells; without rucaparib; stronger effect = lower value
Reported Endpoint: viability (%)
# value in %; strip the unit string

Some solved cases for reference:
- Molecule: "Nc1nc(Cl)nc2c1ncn2[C@@H]1O[C@H](CO)[C@@H](O)[C@@H]1F"
  viability / %: 112
- Molecule: "CCN(CC)CCNC(=O)c1c(C)[nH]c(/C=C2\\C(=O)Nc3ccc(F)cc32)c1C"
  viability / %: 99.1
- Molecule: "Cc1cc(O)c2c(c1)C(=O)c1cccc(O)c1C2=O"
  viability / %: 103

The molecule identified as `CN(C)c1nc(N(C)C)nc(N(C)C)n1` registered its viability at 100

Entry under test: `Clc1ccc(Nc2nnc(Cc3ccncc3)c3ccccc23)cc1` . Its viability was 99.4

// viability value for `O=C(NOCC1CC1)c1ccc(F)c(F)c1Nc1ccc(I)cc1Cl` : 127

For reference, reported viability for `CCCC(CCC)C(=O)O` stands at 117

Entry `CNC(=O)c1ccccc1Sc1ccc2c(/C=C/c3ccccn3)n[nH]c2c1` — recorded viability = 103

Quick note, viability for Nc1cccc2c1CN(C1CCC(=O)NC1=O)C2=O (stereo unspecified) landed at 114

Just so you know, measured viability for `CN(N=O)C(=O)N[C@@H]1[C@@H](O)[C@H](O)[C@@H](CO)O[C@@H]1O` came out at 114

Note to self: viability recorded for CCc1ccc(CCOc2ccc(CC3SC(=O)NC3=O)cc2)nc1 (stereo unspecified) was 126

---

Test: differential killing of epithelial or mesenchymal cells, primary screen, imaging, PC-3E GFP, TEM4-18 mCherry, co-culture (AID 1345086);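 note: cells exposed to compound for 72 h before imaging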
Details: imaging cell counts, measured here: mesenchymal TEM4-18 mCherry cell survival, at 1 µM
Rule: normalised cell number of 0.9 or more gives Criterion met; anything lower gives Criterion not met.

[in] Evaluate CC12CCC3C(CC3(C)C)C(C)(CCC1=O)O2 (stereo unspecified) : normalised cell number at minimum 0.9?
[out] Criterion met

[in] Does normalised cell number meet or surpass 0.9 for `COc1ccc2c(c1OC)C(=O)O[C@H]2[C@H]1c2c(cc3c(c2OC)OCO3)CCN1C` ?
[out] Criterion met

---

Experiment: inhibition of 3D7 malaria parasite growth – strain 3D7 (AID 2306);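 note: 0% = DMSO wells and 100% = chloroquine plus artemisinin control wells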
Conditions: P. falciparum 3D7 erythrocytic growth, LDH absorbance, 72 h; at 2 µM; stronger effect = higher value
Reported Endpoint: growth inhibition (%)
# unit: % | format: bare number

The examples below pair each entry with its known result.
- Compound: "CN(C)CCNC(=O)N1CCCN(c2ncnc3cc(-c4ccccc4)sc23)CC1"
  growth inhibition / %: 96
- Compound: "COc1ccc(-c2ccc(S(=O)(=O)Nc3cc4c(cc3OC(C)C)CCN(C)CC4)cc2)cc1"
  growth inhibition / %: 98
- Compound: "C[C@H](Cc1ccc(C[C@@H](C)NCC(O)c2cc(Cl)c(N)c(Cl)c2)cc1)NCC(O)c1cc(Cl)c(N)c(Cl)c1 (stereo partly specified)"
  growth inhibition / %: 98
- Compound: "Cc1cc(N(C)C)nc(Nc2ccc(NC(=O)c3ccccc3F)cc2)n1"
  growth inhibition / %: 89
- Compound: "O=C(NCCCCN1CCCC2c3ccc(O)cc3CCC21)c1ccc(-c2ccccc2)cc1 (stereo unspecified)"
  growth inhibition / %: 96
- Compound: "Cn1nc(-c2ccc(CN[C@@H]3CCc4ccc(O)cc43)cc2)c2cnc(NCCCN3CCCC3)nc21"
  growth inhibition / %: 101

# compound `COc1cc(Cc2cnc(N)nc2N)cc(OC)c1OC` ; its growth inhibition = 88

Noted for `CCCCCCNc1c2ccccc2nc2ccccc12` : its growth inhibition reads 97

Entry `c1ccc(COc2ccc(C3CCCCC3)cc2)nc1` , growth inhibition reported as 99

The compound listed as `CC(=O)Nc1ccc(CN2Cc3ccc(NC(=O)Nc4ccc(Oc5ccccc5)cc4)cc3C2)s1` has a reported growth inhibition of 91

Notebook: `O=C(Cn1cc(C=C2SC(=NC3CCCC3)N(C3CCCC3)C2=O)c2ccccc21)N1CCCC1` , growth inhibition read as 100

// growth inhibition value for CC(C)C1CCc2nc(N)nc(N)c2C1 (stereo unspecified) : 95

Noted for `CCCOc1cccc(C(=O)N[C@@H](Cc2ccccc2)[C@H](O)CNCc2cccc(OC)c2)c1` : its growth inhibition reads 102

The recorded growth inhibition for `CC(C)CNCc1cccc(-c2cccc(CNCCCN3CCN(C)CC3)c2)c1` is 88

Reported growth inhibition for `CCc1cc2c(N)nc(N)nc2nc1-c1ccccc1` was 91

---

Experiment: LFS_MB_2R medulloblastoma cell growth inhibition, synergistic combos for chromothripsis tumors, cisplatin combos (AID 1671457);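 note: cells exposed to compound for four days before readout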
Settings: LFS_MB_2R medulloblastoma cells, measured here: combination with cisplatin, at 0.5 µM, stronger effect = higher value
Entries annotated with measured inhibition
Give the quantity in %, number only.

- Smi: "O=c1cc[nH]c(=O)[nH]1"
  Reported Endpoint: "inhibition"
  Scale Unit: "%"
  Numeric Value: -11.9
- Smi: "O=c1[nH]c(=O)n([C@H]2C[C@H](O)[C@@H](CO)O2)cc1Br"
  Reported Endpoint: "inhibition"
  Scale Unit: "%"
  Numeric Value: -22.2
- Smi: "Cc1ccc2nc(N)[nH]c(=O)c2c1Sc1ccncc1"
  Reported Endpoint: "inhibition"
  Scale Unit: "%"
  Numeric Value: -25.9
- Smi: "C[C@@H](CN1CC(=O)NC(=O)C1)N1CC(=O)NC(=O)C1"
  Reported Endpoint: "inhibition"
  Scale Unit: "%"
  Numeric Value: -11.4

Let us move to another entry and its inhibition.
So, `COc1c2ccoc2cc2oc(=O)ccc12` ? Its inhibition was -10.7

---

Experiment: ovarian cancer cell viability with rucaparib, profiling panel, oncology-focused library, rucaparib conditional (AID 1508598)
Settings: patient-derived ovarian cancer cells, CellTiter-Glo viability, 144 h; at 5 µM; OCI-P5x cells; with rucaparib 20 µM; stronger effect = lower value; 100% = cells with rucaparib alone
Calls of active or inactive are those of the source.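 Rule for the calls: active = normalized viability below 100% at a tested concentration; inactive = the rest.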
Reported Endpoint: viability

Before answering, review these 5 worked examples.
- Compound: "COc1c(C)c2c(c(O)c1C/C=C(\\C)CCC(=O)OCCN1CCOCC1)C(=O)OC2"
  viability: "52.6% (active)"
- Compound: "Cc1ccc(-n2nc(C(C)(C)C)cc2NC(=O)Nc2ccc(OCCN3CCOCC3)c3ccccc23)cc1"
  viability: "96.1% (active)"
- Compound: "Nc1cccc2c1CN(C1CCC(=O)NC1=O)C2=O (stereo unspecified)"
  viability: "132% (inactive)"
- Compound: "O=C(NOCC1CC1)c1ccc(F)c(F)c1Nc1ccc(I)cc1Cl"
  viability: "61% (active)"
- Compound: "CCCC(CCC)C(=O)O"
  viability: "122% (inactive)"

The recorded viability for entry `CNC(=O)c1ccccc1Sc1ccc2c(/C=C/c3ccccn3)n[nH]c2c1` equals 107% (inactive)

Briefly, viability measured for CCc1ccc(CCOc2ccc(CC3SC(=O)NC3=O)cc2)nc1 (stereo unspecified) : 103% (inactive)

Lookup result for `CC(C)C[C@H](NC(=O)[C@H](Cc1ccccc1)NC(=O)c1cnccn1)B(O)O` ; measured viability: 1.02% (active)

Input `COc1nc(N)nc2c1ncn2[C@@H]1O[C@H](CO)[C@@H](O)[C@@H]1O` . Output viability: 80.3% (active)

Field viability (entry `O=C(CCCCCCC(=O)Nc1ccccc1)NO` ) reads 8.03% (active)

`COc1cc(Nc2c(C#N)cnc3cc(OCCCN4CCN(C)CC4)c(OC)cc23)c(Cl)cc1Cl` yielded viability of 24.4% (active)

---

Target: 6-phosphogluconate dehydrogenase, decarboxylating (Homo sapiens)
Assay: 6PGD enzyme inhibitors, primary screen, biochemical, human, recombinant enzyme, NADPH absorbance (AID 1159550)
Details: recombinant 6PGD, NADPH absorbance 341 nm; at 10 µM; stronger effect = higher value
Reported Endpoint: inhibition (%)
Respond with the bare value in %.

Take a look at these entries with their results.
- Molecule: "COc1ccc2c(c1)OC/C(=C/c1ccc(O)c(O)c1)C2=O"
  Numeric Value: 2.37
- Molecule: "COc1ccc(C[C@H](N)C(=O)N[C@H]2[C@@H](O)[C@H](n3cnc4c(N(C)C)ncnc43)O[C@@H]2CO)cc1"
  Numeric Value: -10.2
- Molecule: "COc1cc2c(cc1OC)[C@H]1Cc3ccc(OC)c(OC)c3CN1CC2"
  Numeric Value: 6.86
- Molecule: "C=C1C2CC[C@@]3(C)[C@H](c4ccoc4)OC(=O)C[C@]13O[C@H]1CC(=O)C(C)(C)[C@H](C(O)C(=O)OC)[C@@]21C (some centres undefined)"
  Numeric Value: -4.16
- Molecule: "CC1CCC(C(C)C)C(O)C1 (centres undefined)"
  Numeric Value: -10.6
- Molecule: "COc1cc2cc3c4cc(OC)c(OC)cc4cc[n+]3c(C)c2cc1OC"
  Numeric Value: 13.7
- Molecule: "CC(C)CCC[C@@H](C)[C@H]1CC[C@H]2[C@@H]3C[C@@H](O)[C@@]4(O)C[C@@H](O)CC[C@]4(C)[C@H]3CC[C@]12C"
  Numeric Value: -2.71
- Molecule: "COc1cc(OC)c2c(c1Cl)O[C@@]1(C(=O)CC(=O)C[C@H]1C)C2=O"
  Numeric Value: 4.62

API: the following record is the query input.
Input `O=C(/C=C/c1ccccc1)c1ccc(O)cc1` . Output inhibition: 1.18
